# Procedure details: Novel Modifiers of Survival Motor Neuron (SMN) Protein: Gene Identification via Genome-wide siRNA Screen;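 further: luminescence tracks full-length SMN protein made from the SMN2 reporter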
# Experimental context: HEK293T SMN2-luciferase reporter, siRNA knockdown, 72 h; actives lie on both sides
The campaign covered roughly 31,000 sequences. About 1,400 (4.5%) were called active.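 How the source made its calls: active means median seed-adjusted z-score above 1 or below -1; inactive means the rest.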 The entries come from a sample that favours actives as a whole.
Possible outcomes: True = active, False = inactive

| Ordered residues | Assigned label |
| --- | --- |
| GCAUCUUUCUGAGUUCACUTT against SLC22A11 | False |
| AGAUUAUCAUAUUGGGUGATT against RAB7B | False |
| CCCUAGAGUAUUACACGGATT against DGKD | False |
| AGAGCGGUCUGACAGUGGATT against NUDT1 | False |
| GCUAGUCAAGGUUCCUAAATT against GTF2F2 | True |
| GCCUAAUUGCGGAACAUAUTT against ESCO1 | False |
| GGUUCGGCAUGAGUGUGAATT against ZNF187 | False |
| CCUCUUACACUUUUCCGAATT against PECI | False |
| CCAUAGUAGUGACUACCAUTT against GRIA3 | False |
| AGGCAAACGUGUUCGUGCATT against IGFALS | False |
| GAGUGCAAUUGGAACCUGATT against ARHGAP30 | False |
| GCGCAGCUCUGGAAUUUGATT against OXCT2 | False |
| CCUCAUCAACUCUGACAUATT against LMO2 | False |
| CCGUGUCCAGGAACCUAUATT against LPHN3 | False |
| AGAGCGACCUCACCACCAATT against RAB1B | True |
| GUAUGGUCGGUUUACAAUATT against YES1 | False |
| GACCGACUCAGAUAUCAUUTT against SNRPA | True |
| CGUGCUUUGAGUACCCGAATT against TAT | False |
| GGAAGUACCUGAGUGUGCATT against MTCH1 | False |
| GGGUGGACGUGGAUACUUATT against NFE2L1 | False |
| CAGUGUUAAUGACCGAAGATT against EIF4G1 | False |
| CCUUUGCCCUGUUCAAGGATT against CYP17A1 | True |
| GCUCAUCCCUGUGCAUGGUTT against LY6G5B | True |
| AGUUGUUGGAAUGACCUUATT against CLEC5A | True |
| GAGCUGACUUUCUGACCAATT against RAB7A | False |
| CCAUCGAUGUCUCUGCUAUTT against ABCA1 | True |
| CGCUGAAGUUUGUCCCUAATT against SEPX1 | False |
| AGGGCUAUCUGGUAUCUGUTT against SNRPF | True |
| GCAAACAAGUGAUAGUGAUTT against RBM11 | False |
| GCUAUUUGCUGGCUACAAATT against POLR2J3 | True |
| CCUUAUCGCUAGAUGUCAATT against GRM3 | False |
| GCAGAUGGUUAUAAGCACATT against GLA | False |
| CCAGGACUUUGUUACUGCATT against TIGD6 | False |
| GAAGGACUCUGCAUAUGAUTT against SLC2A14 | True |
| CUUUAACUGGGAUCACUGUTT against FOLR3 | False |
| GAUGCUACUUUAGAAUUAATT against GNPDA2 | False |
| UGACCAUCGUCUACAAGAATT against COPZ2 | True |
| GAAUUCACCAUUCAAGUAATT against SCYL3 | False |
| GCGCGCUACUUUGGGAUAATT against POLR2E | True |
| GGCCGUUACUUACCAGAGUTT against UROD | True |
| CAGUAUACCAUCUAACAGATT against CNTN1 | False |
| GAAUUGGAAGAAGAUAUCATT against RHOBTB3 | False |
| GAAACAUCUGGUGCUAUUATT against KREMEN2 | False |
| CCUUCAUUGAGGACCUGAATT against PTP4A3 | False |
| CUUUCCGUGUGAAAUCAAATT against ZNF761 | False |
| CCCUAUCAGUCCAAUGGAATT against PRDM4 | False |
| GGCUUAUGGAGGACCCUAUTT against NCOR1 | False |
| GCAUCAUUGAAGGACUAGATT against HEY1 | False |
| GGAUUCUAAGUACAGAGAATT against ZNF323 | False |
| CUAUCGACAUCAAGAGUUUTT against PSPC1 | False |

* * *

# Procedure details: Novel Modifiers of Survival Motor Neuron (SMN) Protein: Gene Identification via Genome-wide siRNA Screen;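 further: luminescence tracks full-length SMN protein made from the SMN2 reporter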
# Experimental context: HEK293T SMN2-luciferase reporter, siRNA knockdown, 72 h; actives lie on both sides
Among all 31,000 sequences or so, about 1,400 (4.5%) were called active. Only a selection was taken, and actives are over-represented in it overall.

| Ordered residues | median seed-adjusted z-score |
| --- | --- |
| GCCCAUAUUUCAUCGUGUATT against NPY | -0.0606 |
| CGGGAAGAAUCAAAGUCGATT against KRT23 | -0.0696 |
| CGACAUAACUAUGUUCGGATT against ETF1 | -1.12 |
| GUAUGGACACCAUUAGUAATT against DTX3L | 0.0785 |
| GCGAUUGCUUUGAUGGGUATT against LTBP1 | 0.143 |
| GCAAUGCACUGACGGAUAUTT against EFEMP1 | 0.0157 |
| GCAACACCAUCGUCUGUGATT against P2RY13 | -0.0427 |
| CAUCAUCUCUGGAACUCUUTT against ALAS2 | -0.142 |
| GAAGCGGCAUUAGCAGAGATT against ISOC1 | 0.104 |
| CCAGUACACUUUUGUCUGATT against CDC5L | -0.628 |
| CUGUAGAACUAGUCCUUAUTT against PRKRIR | 0 |
| CUAUGAUUAUAGCCGGGUATT against PTPN22 | -0.0843 |
| AGAUCGACCAGAACGUGGATT against APOA4 | 0.195 |
| GGAAGACAAUUGCUAAGGUTT against TRO | 2.04 |
| UCAUGUAUGUGGGAGCCAATT against SNCG | -0.169 |
| GAAGCACAUUGUUUCCAGATT against SERGEF | -0.308 |
| CCAUCCCAAAUUUACAACATT against SARS2 | 0.524 |
| GCAUUGGAGGUGAUCCUUUTT against SUCLG1 | -0.63 |
| UCAGCUGUAUCGACCAGAATT against MYL7 | -1.21 |
| GGAUAAUACAGAAGCAGAATT against SAP30BP | -0.257 |
| GCCCAGAAGUUUAGGGAAATT against TAP1 | -0.506 |
| CGAAAGGAAACCUAACGAATT against HIVEP2 | 0.294 |
| GCGAGGGCCUUUUUGAGUATT against CRYAA | -1.03 |
| GCCCAUUAAUAUUAUAGGUTT against LAP3 | 0.0175 |
| GGUUCUAUAGCAGACAAUATT against LOC81691 | -0.285 |

* * *

# Procedure details: Novel Modifiers of Survival Motor Neuron (SMN) Protein: Gene Identification via Genome-wide siRNA Screen;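 further: luminescence tracks full-length SMN protein made from the SMN2 reporter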
# Experimental context: HEK293T SMN2-luciferase reporter, siRNA knockdown, 72 h; actives lie on both sides
In all, about 31,000 sequences went through this assay and about 1,400 (4.5%) were called active.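 How the source made its calls: active means median seed-adjusted z-score above 1 or below -1; inactive means the rest.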 The sample as a whole holds a higher share of actives than the screen did.
Labels: active, inactive

| Ordered residues | Assigned label |
| --- | --- |
| ACACGGCAUUAAAAAGCUATT against JRK | inactive |
| GGGAUACAUUUAAGCGCAATT against SYTL2 | inactive |
| CCACGCUCAUCAUCUCCAATT against SLC4A2 | inactive |
| CGAUCAUUACCUCUCCAGATT against ARHGEF4 | inactive |
| AAAUCUUCUUUCGACAACATT against RAB37 | inactive |
| CAUACGAGGUAUUAUCAAATT against DNAJB7 | inactive |
| CGAAGUGAGUGAUAACAGUTT against RNF157 | inactive |
| CGGAUGCACAAGCUAAAUATT against BHLHA15 | inactive |
| GACUAGUACUUACGGCUUUTT against RBM15 | inactive |
| CUAGUGAUCUUUUAGAGUUTT against CSGALNACT2 | inactive |
| CUACUGUCCUGAUGUAUCATT against MYF5 | inactive |
| CAACCUUAUUAUCAUUGAATT against SF3B3 | active |
| GACCUAUCCUUGCACCAGATT against ECT2 | inactive |
| GGAGCUACUUUGACUCACUTT against KCNK13 | inactive |
| ACAUGGUUAUUCCCAGUGATT against AKR1CL2 | inactive |
| CGAGGACGAUGACUGCUUATT against LRP8 | inactive |
| GCUGUAGCCUUGAUGCCUATT against INMT | inactive |
| GCCUUAUGAUGGAAGAGAUTT against EYA2 | inactive |
| CAAGAUCCAGGACACCAAATT against MAP4K1 | inactive |
| GCCUAGGAGCGAGGACUUATT against DNAJC30 | inactive |
| CGUAUACUAUUAUCACGUUTT against ATP6V0A1 | inactive |
| GCUUGCACUUAAUCUCACATT against LAMB2 | active |
| GGAUGAUAUGGGACCAUAATT against PTPRZ1 | active |
| GCUUUGGAAGGGUUUGAUATT against DCT | inactive |
| CCCAGUUCCUAGACUGUAUTT against MTMR8 | inactive |
